Test: Reduction potentials versus ferrocene (electrochemistry in acetonitrile)
Assay type: physicochemical
Conditions: reduction potential versus ferrocene
Source text: The reversibly reducible material according to one or more of the embodiments disclosed herein is soluble in at least one solvent for redox flow batteries. Accordingly, also provided herein is a negolyte for use in redox-flow batteries, the negolyte including the reversibly reducible material and a redox flow battery solvent. Such solvents include, but are not limited to, acetonitrile, propylene glycol, propylene carbonate, dimethyl acetamide, and dimethyl formamide. […]
metric name: Second Reduction (V)

| compound | unit of measure | assay value |
| --- | --- | --- |
| COCCN(CCOC)C1=CC(=O)c2ccccc2C1=O | V | -1.67 |
| CC(C)CNC1=CC(=O)c2ccccc2C1=O [Compound 1] | V | −1.841 |
| CCN(CC)C1=CC(=O)c2ccccc2C1=O [Compound 11] | V | −1.686 |
| COCCNC1=CC(=O)c2ccccc2C1=O [Compound 2] | V | −1.798 |
| COCCOCCOCCNC1=CC(=O)c2ccccc2C1=O | V | −1.784 |

====

experiment: Reduction potentials versus ferrocene (electrochemistry in acetonitrile); assay type: physicochemical; details: reduction potential versus ferrocene
metric name: First Reduction (V)

| compound | assay value |
| --- | --- |
| COCCOCCOCCNC1=CC(=O)c2ccccc2C1=O | −1.295 |
| CC(C)CNC1=CC(=O)c2ccccc2C1=O [Compound 1] | −1.266 |
| COCCNC1=CC(=O)c2ccccc2C1=O [Compound 2] | −1.316 |
| CCN(CC)C1=CC(=O)c2ccccc2C1=O [Compound 11] | −1.362 |
| COCCN(CCOC)C1=CC(=O)c2ccccc2C1=O | −1.295 |
